# Assayed target: human α2δ-1 subunit of Cav2.2 calcium channel (Homo sapiens (Human))
# Sequence (P54289 25-1103): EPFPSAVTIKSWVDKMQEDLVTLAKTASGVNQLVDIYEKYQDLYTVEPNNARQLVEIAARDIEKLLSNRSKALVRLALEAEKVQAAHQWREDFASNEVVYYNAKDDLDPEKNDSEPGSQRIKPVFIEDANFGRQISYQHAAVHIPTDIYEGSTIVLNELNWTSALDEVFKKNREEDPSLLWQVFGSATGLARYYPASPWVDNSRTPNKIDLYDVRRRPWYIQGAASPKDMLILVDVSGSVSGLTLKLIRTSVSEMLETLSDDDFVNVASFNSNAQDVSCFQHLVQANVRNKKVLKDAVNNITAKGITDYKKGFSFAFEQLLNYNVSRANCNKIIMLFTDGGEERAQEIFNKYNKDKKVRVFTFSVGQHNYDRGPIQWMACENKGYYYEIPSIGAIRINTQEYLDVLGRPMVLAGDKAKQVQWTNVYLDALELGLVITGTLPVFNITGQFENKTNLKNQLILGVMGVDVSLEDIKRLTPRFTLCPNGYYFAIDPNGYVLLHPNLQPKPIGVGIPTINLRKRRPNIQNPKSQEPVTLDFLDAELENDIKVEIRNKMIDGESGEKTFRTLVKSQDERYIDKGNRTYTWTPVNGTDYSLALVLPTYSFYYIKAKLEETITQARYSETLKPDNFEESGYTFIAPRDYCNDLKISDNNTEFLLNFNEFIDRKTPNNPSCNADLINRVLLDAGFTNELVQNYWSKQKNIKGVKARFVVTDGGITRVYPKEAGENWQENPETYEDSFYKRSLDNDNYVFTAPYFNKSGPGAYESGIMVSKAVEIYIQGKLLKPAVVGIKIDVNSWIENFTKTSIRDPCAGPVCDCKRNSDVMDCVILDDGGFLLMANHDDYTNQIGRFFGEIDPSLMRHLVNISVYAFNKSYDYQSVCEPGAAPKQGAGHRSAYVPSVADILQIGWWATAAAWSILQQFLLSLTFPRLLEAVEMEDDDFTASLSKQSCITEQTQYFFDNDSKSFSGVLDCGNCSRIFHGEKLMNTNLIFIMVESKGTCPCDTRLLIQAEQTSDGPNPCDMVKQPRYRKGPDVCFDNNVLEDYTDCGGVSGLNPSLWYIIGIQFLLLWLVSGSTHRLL
# Experiment summary: Binding assay to human α2δ-1 subunit of Cav2.2 calcium channel ([3H]-Gabapentin)
# Condition info: binding to α2δ-1, [3H]-Gabapentin; read-out: Ki (nM) α2δ-1
Observable: Ki

Incoming: # returns recorded Ki (system: human α2δ-1 subunit of Cav2.2 calcium channel (Homo sapiens (Human))) for CCNc1ncc2c(n1)N(C)CCN(Cc1ccccc1OC(CNC)c1ccccc1)C2=O (stereo not shown)
Outgoing: > 3000 nM

Incoming: # returns recorded Ki (system: human α2δ-1 subunit of Cav2.2 calcium channel (Homo sapiens (Human))) for CNCCC(Oc1ccc(CN2CCN(C)c3nc(C)ncc3C2=O)cc1)c1ccccc1 (stereo not shown)
Outgoing: > 3000 nM

Incoming: # returns recorded Ki (system: human α2δ-1 subunit of Cav2.2 calcium channel (Homo sapiens (Human))) for CSc1ncc2c(n1)N(C)CCN(c1cccc(OC(CNC(=O)OC(C)(C)C)c3ccccc3)c1)C2=O (stereo not shown)
Outgoing: > 3000 nM

Incoming: # returns recorded Ki (system: human α2δ-1 subunit of Cav2.2 calcium channel (Homo sapiens (Human))) for CCNc1ncc2c(n1)N(C)CCN(c1cccc(COC(CCNC)c3cccs3)c1)C2=O (stereo not shown)
Outgoing: 100 to 500 nM

Incoming: # returns recorded Ki (system: human α2δ-1 subunit of Cav2.2 calcium channel (Homo sapiens (Human))) for CNCCC(OCc1cccc(N2CCN(C)c3nc(C(F)(F)F)ncc3C2=O)c1)c1cccs1 (stereo not shown)
Outgoing: 500 to 3000 nM

Incoming: # returns recorded Ki (system: human α2δ-1 subunit of Cav2.2 calcium channel (Homo sapiens (Human))) for CSc1ncc2c(n1)N(C)CCN(c1cccc(COC3(c4ccccc4)CCN(C)CC3)c1)C2=O
Outgoing: > 3000 nM

Incoming: # returns recorded Ki (system: human α2δ-1 subunit of Cav2.2 calcium channel (Homo sapiens (Human))) for CCNc1ncc2c(n1)N(C)CCN(c1cccc(CO[C@H](CCN(C)C)c3ccccc3)c1)C2=O
Outgoing: 500 to 3000 nM

Incoming: # returns recorded Ki (system: human α2δ-1 subunit of Cav2.2 calcium channel (Homo sapiens (Human))) for CSc1ncc2c(n1)N(C)CCN(c1cccc(CCCN(C)C(=O)OC(C)(C)C)c1)C2=O
Outgoing: > 3000 nM

Incoming: # returns recorded Ki (system: human α2δ-1 subunit of Cav2.2 calcium channel (Homo sapiens (Human))) for CCNc1ncc2c(n1)N(C)CCN(c1cccc(CO[C@H](CCNC)c3ccccc3)c1)C2
Outgoing: 500 to 3000 nM

Incoming: # returns recorded Ki (system: human α2δ-1 subunit of Cav2.2 calcium channel (Homo sapiens (Human))) for CCNc1ncc2c(n1)N(C)CCN(c1cccc(-n3cc(C(OCC)OCC)nn3)c1)C2=O
Outgoing: > 3000 nM

Incoming: # returns recorded Ki (system: human α2δ-1 subunit of Cav2.2 calcium channel (Homo sapiens (Human))) for CNCC[C@@H](OCc1cccc(N2CCN(C)c3nc(N(C)Cc4ccccn4)ncc3C2=O)c1)c1ccccc1
Outgoing: 100 to 500 nM

Incoming: # returns recorded Ki (system: human α2δ-1 subunit of Cav2.2 calcium channel (Homo sapiens (Human))) for CCNc1ncc2c(n1)N(C)CCN(c1cccc(CNC)c1)C2=O
Outgoing: 500 to 3000 nM

Incoming: # returns recorded Ki (system: human α2δ-1 subunit of Cav2.2 calcium channel (Homo sapiens (Human))) for CCNc1ncc2c(n1)N(C)CCN(c1cccc(OC(CN(C)C)c3ccccc3)c1)C2=O (stereo not shown)
Outgoing: > 3000 nM

Incoming: # returns recorded Ki (system: human α2δ-1 subunit of Cav2.2 calcium channel (Homo sapiens (Human))) for CNCC[C@H](Oc1ccc(CN2CCN(C)c3c(Cl)cncc3C2=O)cc1)c1cccs1
Outgoing: 500 to 3000 nM

Incoming: # returns recorded Ki (system: human α2δ-1 subunit of Cav2.2 calcium channel (Homo sapiens (Human))) for CCNc1ncc2c(n1)N(C)CCN(Cc1cccc(OC(CN(C)C(=O)OC(C)(C)C)c3ccccc3)c1)C2=O (stereo not shown)
Outgoing: > 3000 nM

Incoming: # returns recorded Ki (system: human α2δ-1 subunit of Cav2.2 calcium channel (Homo sapiens (Human))) for CNCC[C@H](Oc1cccc(N2CCN(C)c3cc(N)ncc3C2=O)c1)c1cccs1
Outgoing: 100 to 500 nM
